Each recorded value in this set is attributed to patent US20250361268A1.

Below: a set of entries, each annotated with reported EC50 for [Ca2+].
Molecular target: T1, FPR1 (UniProt P21462 1-350, limits assumed)
T1 sequence (looked up): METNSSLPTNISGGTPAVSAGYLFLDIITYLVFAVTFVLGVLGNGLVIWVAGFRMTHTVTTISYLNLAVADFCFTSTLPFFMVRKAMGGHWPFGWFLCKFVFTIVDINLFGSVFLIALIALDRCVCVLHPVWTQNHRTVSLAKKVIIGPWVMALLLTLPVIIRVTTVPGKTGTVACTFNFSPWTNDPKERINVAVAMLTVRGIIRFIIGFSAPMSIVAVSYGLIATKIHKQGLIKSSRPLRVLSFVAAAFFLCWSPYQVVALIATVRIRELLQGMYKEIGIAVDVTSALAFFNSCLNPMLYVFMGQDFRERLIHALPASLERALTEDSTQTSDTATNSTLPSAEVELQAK
Assay: cell-based or functional assay

PMKYKVM (HELM PEPTIDE1{P.M.K.Y.K.V.[dM].[am]}$$$$V2.0; N-terminus assumed; SMILES CSCC[C@H](NC(=O)[C@@H]1CCCN1)C(=O)N[C@@H](CCCCN)C(=O)N[C@@H](Cc1ccc(O)cc1)C(=O)N[C@@H](CCCCN)C(=O)N[C@H](C(=O)N[C@H](CCSC)C(N)=O)C(C)C) [peptide of SEQ ID NO 25] ... > 10 µM

Item: IKKWMM (HELM PEPTIDE1{I.K.K.W.M.[dM].[am]}$$$$V2.0; N-terminus assumed; SMILES CC[C@H](C)[C@H](N)C(=O)N[C@@H](CCCCN)C(=O)N[C@@H](CCCCN)C(=O)N[C@@H](Cc1c[nH]c2ccccc12)C(=O)N[C@@H](CCSC)C(=O)N[C@H](CCSC)C(N)=O) [peptide of SEQ ID NO 130] | EC50 for [Ca2+]: > 10 µM
